Hello, the source for this data is ChEMBL document CHEMBL1151093, in case you need it.

# system.tested: UniProtKB P35439
metric: IC50 (µM)
Write the answer as a number in µM, unit excluded.

Ask | # returns recorded IC50 (system: UniProtKB P35439) for O=c1cc(O)c2c([nH]c1=O)CCCC2
Reply | 3.21
